B1: PhoQ; a variant is named by its letters at X, in order, P23837 (parent)
chain: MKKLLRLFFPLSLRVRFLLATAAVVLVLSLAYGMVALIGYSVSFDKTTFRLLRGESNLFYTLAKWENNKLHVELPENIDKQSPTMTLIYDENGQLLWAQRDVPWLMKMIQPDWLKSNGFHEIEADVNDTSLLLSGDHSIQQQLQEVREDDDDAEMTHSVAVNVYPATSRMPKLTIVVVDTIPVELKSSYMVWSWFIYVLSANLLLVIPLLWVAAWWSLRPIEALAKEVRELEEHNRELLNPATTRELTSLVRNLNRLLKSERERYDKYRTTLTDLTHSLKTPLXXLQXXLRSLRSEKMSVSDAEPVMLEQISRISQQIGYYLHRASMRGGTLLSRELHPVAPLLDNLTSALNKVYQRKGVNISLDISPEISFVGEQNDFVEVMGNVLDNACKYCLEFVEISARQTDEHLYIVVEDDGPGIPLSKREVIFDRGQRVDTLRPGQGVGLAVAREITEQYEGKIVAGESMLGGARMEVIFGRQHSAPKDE

Variants of: B1
Test: enrichment ratio after two sorts for PhoP signalling (ratio (wild type AVST 3.29)); higher = more functional
Details: with PhoP (E. coli)
In all, about 140,000 sequences were measured (“enrichment ratio after two sorts for PhoP signalling”: median about 0, highest 2% from about 11 on). This excerpt belongs to a sample that is enriched for the highest values.
reported.metric: enrichment ratio

Lab note: measured enrichment ratio of LCMI was ≤ 0.25

Lab note: measured enrichment ratio of HCMH was ≤ 0.25

Lab note: measured enrichment ratio of AQMD was ≤ 0.25

Lab note: measured enrichment ratio of HTEF was ≤ 0.25

Lab note: measured enrichment ratio of TCMH was 15.1

Lab note: measured enrichment ratio of FGTC was ≤ 0.25

Lab note: measured enrichment ratio of WISV was ≤ 0.25

Lab note: measured enrichment ratio of TCMV was 14.6

Lab note: measured enrichment ratio of TCWV was 2.38

Lab note: measured enrichment ratio of TFFG was ≤ 0.25

Lab note: measured enrichment ratio of DVLN was ≤ 0.25

Lab note: measured enrichment ratio of ECNN was ≤ 0.25

Lab note: measured enrichment ratio of SKDW was ≤ 0.25

Lab note: measured enrichment ratio of PRSV was ≤ 0.25

Lab note: measured enrichment ratio of HQMW was ≤ 0.25

Lab note: measured enrichment ratio of VGAQ was ≤ 0.25

Lab note: measured enrichment ratio of VHSV was ≤ 0.25

Lab note: measured enrichment ratio of DWIL was ≤ 0.25

Lab note: measured enrichment ratio of AISV was 15.9

Lab note: measured enrichment ratio of TFLG was 11.8

Lab note: measured enrichment ratio of HMTD was ≤ 0.25

Lab note: measured enrichment ratio of YRCS was ≤ 0.25
